- PROTOCOL DESCRIPTION: Anti-settlement assay with barnacle cyprid larvae (settlement inhibition and mortality, 48 h)
- Assay type: in vivo, Balanus amphitrite
- CONDITION SET: in vivo, other: larvae immersed in seawater containing the compound; Balanus amphitrite cyprid larvae, 48 h incubation; read-out: LC50 (larval mortality)
READOUT LABEL: log10(LC50 at 48 h) (log10 of the value in µg/mL)
A value of 2 here means LC50 at 48 h of 100 in µg/mL, since values are log10.

Worked examples, 4 molecules total:
MOLECULE | log10(LC50 at 48 h)
COC(=O)C12OCC34C(CC5C(C)=C(O)C(=O)CC5(C)C3C(O)C1O)OC(=O)C(OC(=O)c1ccc(C(C)=O)s1)C24 (stereo not shown) | 0.90
COC(=O)C12OCC34C(CC5C(C)=C(O)C(=O)CC5(C)C3C(O)C1O)OC(=O)C(OC(=O)CCCCCl)C24 (stereo not shown) [Compound 2, 15-O-(5′-Chlorovaleryl)-Bruceolide] | 0.05
COC(=O)C12OCC34C(CC5C(C)=C(O)C(=O)CC5(C)C3C(O)C1O)OC(=O)C(OC(=O)Cc1cccc(C#N)c1)C24 (stereo not shown) | 0.82
COC(=O)C12OCC34C(CC5C(C)=C(O)C(=O)CC5(C)C3C(O)C1O)OC(=O)C(OC(=O)c1ccc(Cl)nc1)C24 (stereo not shown) | 0.76

Can you look up the measured log10(LC50 at 48 h) of COC(=O)C12OCC34C(CC5C(C)=C(O)C(=O)CC5(C)C3C(O)C1O)OC(=O)C(OC(=O)c1ccc(Cl)cc1)C24 (stereo not shown) for me?
-0.13

Fill in the blank: the reported log10(LC50 at 48 h) of COC(=O)C12OCC34C(CC5C(C)=C(O)C(=O)CC5(C)C3C(O)C1O)OC(=O)C(OC(=O)CCCCl)C24 (stereo not shown) [Compound 3, 15-O-(4′-Chlorobutanoyl)-Bruceolide] is ____.
0.80

Look at this molecule and give its reported log10(LC50 at 48 h). COC(=O)C12OCC34C(CC5C(C)=C(O)C(=O)CC5(C)C3C(O)C1O)OC(=O)C(OC(=O)CCCCBr)C24 (stereo not shown) [Compound 1, 15-O-(5′-Bromovaleryl)-Bruceolide]
-0.07

// query log10(LC50 at 48 h) value for entry COC(=O)C12OCC34C(CC5C(C)=C(O)C(=O)CC5(C)C3C(O)C1O)OC(=O)C(OC(=O)CCC#N)C24 (stereo not shown) [Compound 12, 15-O-(3′-Cyanopropanoyl)-Bruceolide]
0.45

Reported log10(LC50 at 48 h) for COC(=O)C12OCC34C(CC5C(C)=C(O)C(=O)CC5(C)C3C(O)C1O)OC(=O)C(OC(=O)c1ccc(Cl)s1)C24 (stereo not shown) : what is it?
0.79

Data request, read-out log10(LC50 at 48 h), for COC(=O)C12OCC34C(CC5C(C)=C(O)C(=O)CC5(C)C3C(O)C1O)OC(=O)C(OC(=O)Cc1cccc(F)c1)C24 (stereo not shown) [Compound 8, 15-O-(5′-Fluorophenylacetyl)-Bruceolide]
0.77
